Data provenance is ChEMBL document CHEMBL1926642.

tested on: SNB-75; test: Growth inhibition of human SNB75 cells after 48 hrs by sulforhodamine B assay; format: functional; details: SNB-75, 48 h
// reported GI50 per item
The figure you give is taken to be in µM; do not add the unit.

# annotated cases, reported GI50 shown
COCOc1cc(/C=C/c2cc(C=O)c3c(c2)C[C@@H]2C(C)(C)[C@H](O)CC[C@@]2(C)O3)cc(OC)c1C/C=C(\C)CCC=C(C)C : 1.62
COc1cc(/C=C/c2cc3c(c(OC)c2)O[C@]2(C)CC[C@@H](O)C(C)(C)[C@H]2C3)cc(O)c1C/C=C(\C)CCC=C(C)C : 3.63
COc1cc(/C=C/c2ccc3c(c2)C[C@@H]2C(C)(C)[C@H](O)CC[C@@]2(C)O3)cc(O)c1C/C=C(\C)CCC=C(C)C : 5.37

Next compound, GI50 to be filled in.
Incoming: GI50 lookup needed for COc1cc(/C=C/c2cc(F)c3c(c2)C[C@@H]2C(C)(C)[C@H](O)CC[C@@]2(C)O3)cc(O)c1C/C=C(\C)CCC=C(C)C , thanks.
Outgoing: 2.95

====

// reported LC50 per item
tested on: SK-MEL-2; test: Growth inhibition of human SK-MEL-2 cells after 48 hrs by sulforhodamine B assay; type: functional; conditions: SK-MEL-2, 48 h
The figure you give is taken to be in µM; do not add the unit.

COc1cc(/C=C/c2cc3c(c(OC)c2)O[C@]2(C)CC[C@@H](O)C(C)(C)[C@H]2C3)cc(O)c1C/C=C(\C)CCC=C(C)C : 27.5
COc1cc(/C=C/c2ccc3c(c2)C[C@@H]2C(C)(C)[C@H](O)CC[C@@]2(C)O3)cc(O)c1C/C=C(\C)CCC=C(C)C : 81.3
COc1cc(/C=C/c2cc3c(c(SC)c2)O[C@]2(C)CC[C@@H](O)C(C)(C)[C@H]2C3)cc(O)c1C/C=C(\C)CCC=C(C)C : 69.2

Incoming: LC50 lookup needed for COc1cc(/C=C/c2cc(O)c3c(c2)C[C@@H]2C(C)(C)[C@H](O)CC[C@@]2(C)O3)cc(O)c1C/C=C(\C)CCC=C(C)C , thanks.
Outgoing: 56.2

Incoming: LC50 lookup needed for COc1cc(/C=C/c2cc(F)c3c(c2)C[C@@H]2C(C)(C)[C@H](O)CC[C@@]2(C)O3)cc(O)c1C/C=C(\C)CCC=C(C)C , thanks.
Outgoing: 75.9

====

tested on: A549; assay: Growth inhibition of human A549 cells after 48 hrs by sulforhodamine B assay; type: functional; details: A549, 48 h
property-measured: LC50 (µM)
The figure you give is taken to be in µM; do not add the unit.

COc1cc(/C=C/c2cc(F)c3c(c2)C[C@@H]2C(C)(C)[C@H](O)CC[C@@]2(C)O3)cc(O)c1C/C=C(\C)CCC=C(C)C : 15.8

Incoming: Query the reported LC50 for A549; item: COc1cc(/C=C/c2cc3c(c(OC)c2)O[C@]2(C)CC[C@@H](O)C(C)(C)[C@H]2C3)cc(O)c1C/C=C(\C)CCC=C(C)C
Outgoing: 28.2

Incoming: Query the reported LC50 for A549; item: COc1cc(/C=C/c2cc(O)c3c(c2)C[C@@H]2C(C)(C)[C@H](O)CC[C@@]2(C)O3)cc(O)c1C/C=C(\C)CCC=C(C)C
Outgoing: 40.7
